The measurements presented in this section are drawn from patent US20210188972A1.

Target: T1, Human PTGFRN-ECD (extracellular domain; amino-acid 26 to amino-acid Y at 832), His-tag protein (human, UniProt Q9P2B2 26-832)
T1 construct: range 26-832; Expressed in Hek-293 cells, purified on a nickel column; also called recombinant PTGFRN; not shown: His-tag
T1 sequence (looked up): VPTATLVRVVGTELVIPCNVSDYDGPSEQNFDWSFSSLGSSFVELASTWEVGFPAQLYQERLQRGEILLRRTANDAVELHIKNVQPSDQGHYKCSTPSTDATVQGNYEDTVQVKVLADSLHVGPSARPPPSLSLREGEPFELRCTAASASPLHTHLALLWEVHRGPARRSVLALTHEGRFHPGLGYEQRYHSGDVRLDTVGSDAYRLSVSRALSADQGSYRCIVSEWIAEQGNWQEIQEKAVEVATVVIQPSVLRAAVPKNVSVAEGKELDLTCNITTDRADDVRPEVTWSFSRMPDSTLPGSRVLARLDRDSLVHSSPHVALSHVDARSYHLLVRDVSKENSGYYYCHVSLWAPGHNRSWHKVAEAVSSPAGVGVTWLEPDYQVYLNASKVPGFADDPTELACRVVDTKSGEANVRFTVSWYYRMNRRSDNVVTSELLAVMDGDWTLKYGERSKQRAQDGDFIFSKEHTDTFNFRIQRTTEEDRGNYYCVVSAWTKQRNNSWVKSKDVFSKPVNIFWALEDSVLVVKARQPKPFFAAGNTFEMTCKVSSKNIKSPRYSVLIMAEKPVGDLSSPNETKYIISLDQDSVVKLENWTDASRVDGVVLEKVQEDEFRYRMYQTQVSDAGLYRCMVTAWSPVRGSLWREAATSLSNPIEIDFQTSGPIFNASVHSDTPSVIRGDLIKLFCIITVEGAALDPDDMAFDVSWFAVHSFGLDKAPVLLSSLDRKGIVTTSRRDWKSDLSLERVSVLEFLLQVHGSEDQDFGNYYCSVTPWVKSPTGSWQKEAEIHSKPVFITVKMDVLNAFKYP
Experiment: Octet Red96 pairing (binning matrix) on PTGFRN-ECD; capture Ab (1st loading Ab): 7B4
measurement.label: Octet pairing response

Query: Please indicate Octet pairing response recorded for 2B12 (antibody, V domains shown, Mouse hybridoma mAb) VH: QVQLQQPGAELVKPGASVKMSCKASGYTFTSYWITWVKQGPGQGLEWIGDIYPGSGNTNYNEKFKSKATLTVDTSSSTAYMQLSSLTSEDSAVYYCARFFILTSYYFDYWGQGTTLTVSS VL: GIVMTQSQKFMSTTVGDRVSITCKASQNVGTAVAWFQQKPGQSPKLLIYLASNRYTGVPDRFTGSGSGTDFTLTISNMQSEDLADYFCQQYSNYPLTFGAGTKLELK
Result: 0.0818

Query: Please indicate Octet pairing response recorded for 3E10 (antibody, V domains shown) VH: EVHLVESGGDLVKPGGSLKLSCAASGFTFSSYGMSWVRQTPDKRLEWVASISSGGSHTYYPDRVKGRFTISRDNAKNTLYLQMSSLKSEDTAMYYCARHPSYYGSSLYCFDYWGQGTTLTVSS VL: DIQMTQTTSSLSASLGDRVTISCRASQDISNYLNWYQQKPDGTVKLLIYYTSRLHSGVPSRFSGSGSGTDFSLTISNLEQEDVATYFCQQGSTLPWTFGGGTKLEIK
Result: 0.12

Query: Please indicate Octet pairing response recorded for 6F6 (antibody, V domains shown, Mouse hybridoma mAb) VH: QVQLQQSGAELVKPGASVKVSCKASGYTFTTYWMHWVKQRPGQGLEWIGRIHPSDSDTNYNQKFKGKATLTLDKSSSTAYMQLSSLTSEDSAVYYCAMSLYYTMDYWGQGTSVTVSS VL: DIQMTQSPSSLSASLGGKVTITCKASQDIKKYIAWYQHKPGKGPRLLIHYTSTLQPGIPSRFSGSGSGRDYSFSISNLEPEDIATYYCLQYDNLLYTFGGGTKLEIK
Result: 0.103
